Settings: in dichloromethane, 278.15 K
parameter_measured: solubility (mole fraction)

   compound_structure          parameter_measured  experimental_result
0        Clc1cccnc1Cl  solubility (mole fraction)                0.213

###

Conditions: in n-hexane, 313.15 K
parameter_measured: solubility (mole fraction)

In [3]: df
Out[3]:
   compound_structure  experimental_result
0        Clc1cccnc1Cl                0.123

###

Details: in n-butanol, 293.15 K
parameter_measured: solubility (mole fraction)

In [3]: df
Out[3]:
   compound_structure          parameter_measured  experimental_result
0        Clc1cccnc1Cl  solubility (mole fraction)               0.0983
